- assayProtocol: in vitro
- conditionNotes: rat, plasma
metricName: remaining at 0.5 h (%)
Quick note: give the figure in %, leave out the unit.

Quick one: remaining at 0.5 h for CCOC(=O)CNC(=O)[C@H](CCCNC(=N)N)NC(=O)[C@H](Cc1ccccc1)NC(=O)CN(C)C(=N)N [Example 7] ?
93

* * *

- assayProtocol: in vitro
- conditionNotes: rat, plasma
metricName: remaining at 1 h (%)
Answer in %, number only, no unit symbol.

# get_value(readout='remaining at 1 h', item= CCOC(=O)CNC(=O)[C@H](CCCNC(=N)N)NC(=O)[C@H](Cc1ccccc1)NC(=O)CN(C)C(=N)N )
92

* * *

- assayProtocol: Stability of Creatine amides in human blood plasma (RP-HPLC peak areas, 37° C.)
- conditionNotes: human, blood plasma
metricName: remaining at 3 h (%)
Please respond with the number in % and leave the unit unwritten.

Given the entry CN(CC(=O)OCc1ccccc1)C(=N)N [Creatine benzyl ester, reference compound] , report its measured remaining at 3 h.
46

* * *

- assayProtocol: in vitro
- conditionNotes: human, plasma
metricName: remaining at 1 h (%)
Give the value in % but do not write % after it.

Given the molecule CCOC(=O)CNC(=O)[C@H](CCCNC(=N)N)NC(=O)[C@H](Cc1ccccc1)NC(=O)CN(C)C(=N)N , what is its reported remaining at 1 h?
90
